Measured values drawn from patent US10344054B2 for this set.

Biological target: UniProtKB P30556
Sequence (P30556 1-359): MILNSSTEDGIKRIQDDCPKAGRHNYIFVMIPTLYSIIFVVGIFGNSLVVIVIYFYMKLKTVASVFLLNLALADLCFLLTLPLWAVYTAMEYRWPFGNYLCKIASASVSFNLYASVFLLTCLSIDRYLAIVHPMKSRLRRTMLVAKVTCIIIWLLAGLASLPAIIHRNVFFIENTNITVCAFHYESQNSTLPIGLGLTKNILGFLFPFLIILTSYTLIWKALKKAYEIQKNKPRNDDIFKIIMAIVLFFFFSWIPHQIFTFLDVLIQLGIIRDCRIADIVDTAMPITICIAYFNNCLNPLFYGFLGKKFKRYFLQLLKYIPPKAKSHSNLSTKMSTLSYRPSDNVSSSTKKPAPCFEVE
Experiment: FLIPR calcium flux assay, Part II: antagonist activity against Angiotensin II
Format: cell-based
Details: read-out: hAT1R Antagonist IC50 Ave
Starred links: 1 amine or outer side, 2 acyl side, 3 side chain; linkers in the order of their positions; H or OH if unused. Non-standard residues stand in square brackets, D forms with d. Residues, ends and D or L forms follow the SMILES beside them. X1 = O=C(CN(C[C@H](O)[C@@H](O)[C@H](O)[C@H](O)CO)[*:1])[*:2]; dPhe(2-Cl) = N[C@H](Cc1ccccc1Cl)C(=O)O; Chg = N[C@H](C(=O)O)C1CCCCC1
reportedProperty: IC50 (nM)
Field format: number, assumed nM, no unit text.

compound: CC(C)[C@H](NC(=O)[C@H](CCCNC(=N)N)NC(=O)CNC[C@H](O)[C@@H](O)[C@H](O)[C@H](O)CO)C(=O)N[C@@H](Cc1ccc(O)cc1)C(=O)N[C@H](C(=O)N[C@@H](Cc1c[nH]cn1)C(=O)N1CCC[C@H]1C(=O)N[C@H](Cc1ccccc1Cl)C(=O)O)C1CCCCC1 [Compound 31] (H-[X1]RVY[Chg]HP[dPhe(2-Cl)]-OH)
IC50 / nM: 15.7

Now look at this one.
Exercise: Look up IC50 of CNCC(=O)N[C@@H](CCCNC(=N)N)C(=O)N[C@H](C(=O)N[C@@H](Cc1ccc(O)cc1)C(=O)N[C@H](C(=O)N[C@@H](Cc1c[nH]cn1)C(=O)N1CCC[C@H]1C(=O)N[C@H](Cc1ccccc1-c1ccccc1)C(=O)O)C(C)C)C(C)C [Compound 6] (HELM PEPTIDE1{[Sar].R.V.Y.V.H.P.[O=C(O)[C@@H](Cc1ccccc1-c1ccccc1)N[*:1]]}$$$$V2.0) and report it.
Key: 16.6

---

Target: hAT1R (Homo sapiens, UniProt P30556)
Sequence (P30556 1-359): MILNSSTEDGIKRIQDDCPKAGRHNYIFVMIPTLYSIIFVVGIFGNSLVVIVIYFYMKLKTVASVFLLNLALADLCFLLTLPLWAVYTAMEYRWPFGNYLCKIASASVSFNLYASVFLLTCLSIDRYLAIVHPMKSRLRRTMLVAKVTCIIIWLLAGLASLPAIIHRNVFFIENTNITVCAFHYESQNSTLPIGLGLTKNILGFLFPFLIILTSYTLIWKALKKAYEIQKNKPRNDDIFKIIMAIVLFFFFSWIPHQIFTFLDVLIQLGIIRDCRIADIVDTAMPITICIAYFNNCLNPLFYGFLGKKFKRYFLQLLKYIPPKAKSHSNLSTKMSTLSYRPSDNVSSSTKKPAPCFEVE
Assay: FLIPR calcium flux assay, Part II: antagonist activity against Angiotensin II
Format: cell-based
Details: read-out: hAT1R Antagonist IC50 Ave
Method: AT1 receptor (AT1R) agonists increase intracellular flux of calcium ions. AT1R antagonists can reduce the agonist effect. […] Intracellular flux of calcium in response to agonist was measured through real-time measurement of fluorescence induced through the interaction of Ca2+ (released from intracellular stores) and calcium-sensitive dye. In Part I, cells were exposed to varying concentrations of test compounds and immediately measured for agonist activity (EC50 and Efficacy). […]
Residues, ends and D or L forms follow the SMILES beside them.
reportedProperty: pIC50
Scale for pIC50: -log10 of concentration given in mol/L; no unit attached.

Below, each entry is followed by its recorded pIC50 result.
molecule: CNCC(=O)N[C@@H](CCCNC(=N)N)C(=O)N[C@H](C(=O)N[C@@H](Cc1ccc(O)cc1)C(=O)N[C@@H](Cc1ccc(N)cc1)C(=O)N[C@@H](Cc1c[nH]cn1)C(=O)N1CCC[C@H]1C(=O)N[C@H](Cc1ccccc1Cl)C(=O)O)C(C)C [Compound 20] (HELM PEPTIDE1{[Sar].R.V.Y.[Nc1ccc(C[C@H](N[*:1])C(=O)[*:2])cc1].H.P.[O=C(O)[C@@H](Cc1ccccc1Cl)N[*:1]]}$$$$V2.0)
quantitativeReadout: 8.28
//
molecule: CNCC(=O)N[C@@H](CCCNC(=N)N)C(=O)N[C@H](C(=O)N[C@@H](Cc1ccc(O)cc1)C(=O)N[C@H](C(=O)N[C@@H](Cc1c[nH]cn1)C(=O)N1CCC[C@H]1C(=O)N[C@H](Cc1ccccc1C(F)(F)F)C(=O)O)C(C)C)C(C)C [Compound 3] (HELM PEPTIDE1{[Sar].R.V.Y.V.H.P.[O=C(O)[C@@H](Cc1ccccc1C(F)(F)F)N[*:1]]}$$$$V2.0)
quantitativeReadout: 7.63

Exercise: Determine from records and report pIC50 for CNCC(=O)N[C@@H](CCCNC(=N)N)C(=O)N[C@H](C(=O)N[C@@H](Cc1ccc(O)cc1)C(=O)N[C@H](C(=O)N[C@@H](Cc1c[nH]cn1)C(=O)N1CCC[C@H]1C(=O)N[C@H](Cc1ccccc1C)C(=O)O)C1CCCCC1)C(C)C [Compound 27] (HELM PEPTIDE1{[Sar].R.V.Y.[O=C([C@@H](N[*:1])C1CCCCC1)[*:2]].H.P.[Cc1ccccc1C[C@@H](N[*:1])C(=O)O]}$$$$V2.0)
Key: 7.84

---

biological target: hAT1R (Homo sapiens, UniProt P30556); experiment: FLIPR calcium flux assay, Part II: antagonist activity against Angiotensin II; type: cell-based; conditions: read-out: hAT1R Antagonist IC50 Ave
Residues, ends and D or L forms follow the SMILES beside them.
In this section we review reported pIC50 values for a set of compounds.
Schema: pIC50 number; meaning minus log10 of the concentration expressed in molar units.

compound: CNCC(=O)N[C@@H](CCCNC(=N)N)C(=O)N[C@H](C(=O)N[C@@H](Cc1ccc(O)c(Cl)c1)C(=O)N[C@H](C(=O)N[C@@H](Cc1c[nH]cn1)C(=O)N1CCC[C@H]1C(=O)N[C@H](Cc1ccccc1Cl)C(=O)O)C(C)C)C(C)C [Compound 28] (HELM PEPTIDE1{[Sar].R.V.[O=C([C@H](Cc1ccc(O)c(Cl)c1)N[*:1])[*:2]].V.H.P.[O=C(O)[C@@H](Cc1ccccc1Cl)N[*:1]]}$$$$V2.0)
pIC50: 7.91

Exercise: Assign pIC50 to the following record: CC(C)[C@H](NC(=O)[C@H](CCCNC(=N)N)NC(=O)CNC[C@H](O)[C@@H](O)[C@H](O)[C@H](O)CO)C(=O)N[C@@H](Cc1ccc(O)cc1)C(=O)N[C@H](C(=O)N[C@@H](Cc1c[nH]cn1)C(=O)N1CCC[C@H]1C(=O)N[C@H](Cc1cccc2ccccc12)C(=O)O)C(C)C [Compound 37, Glac-Arg-Val-Tyr-Val-His-Pro-(D-1Nal)-OH] (HELM PEPTIDE1{[O=C(CNC[C@H](O)[C@@H](O)[C@H](O)[C@H](O)CO)[*:2]].R.V.Y.V.H.P.[O=C(O)[C@@H](Cc1cccc2ccccc12)N[*:1]]}$$$$V2.0)
Key: 7.71

---

molecular target: hAT1R (Homo sapiens, UniProt P30556); test: FLIPR calcium flux assay, Part I: agonist activity; format: cell-based; settings: ChanTest hAT1R stable cells; % MPE, percent of the maximal possible effect; read-out: hAT1R Agonist Efficacy Agonist (%) Ave
Residues, ends and D or L forms follow the SMILES beside them.
Measured Emax, listed per entry.
Form entry: value (%) — number only.

compound: CC[C@H](C)[C@H](NC(=O)[C@@H]1CCCN1C(=O)[C@H](Cc1c[nH]cn1)NC(=O)[C@@H](NC(=O)[C@H](Cc1ccc(O)cc1)NC(=O)[C@@H](NC(=O)[C@H](CCCNC(=N)N)NC(=O)CNC)C(C)C)[C@@H](C)CC)C(=O)O [Ref. Cpd. 1, Sar-Arg-Val-Tyr-Ile-His-Pro-Ile-OH, reference compound]
Emax, %: 42

compound: CNCC(=O)N[C@@H](CCCNC(=N)N)C(=O)N[C@H](C(=O)N[C@@H](Cc1ccc(O)cc1)C(=O)N[C@@H](Cc1cccs1)C(=O)N[C@@H](Cc1c[nH]cn1)C(=O)N1CCC[C@H]1C(=O)N[C@H](Cc1ccccc1Cl)C(=O)O)C(C)C [Compound 23] (HELM PEPTIDE1{[Sar].R.V.Y.[O=C([C@H](Cc1cccs1)N[*:1])[*:2]].H.P.[O=C(O)[C@@H](Cc1ccccc1Cl)N[*:1]]}$$$$V2.0)
Emax, %: 4

Exercise: Tell me Emax reported for CNCC(=O)N[C@@H](CCCNC(=N)N)C(=O)N[C@H](C(=O)N[C@@H](Cc1ccc(N)cc1)C(=O)N[C@H](C(=O)N[C@@H](Cc1c[nH]cn1)C(=O)N1CCC[C@H]1C(=O)N[C@H](Cc1ccccc1Cl)C(=O)O)C(C)C)C(C)C [Compound 33] (HELM PEPTIDE1{[Sar].R.V.[Nc1ccc(C[C@H](N[*:1])C(=O)[*:2])cc1].V.H.P.[O=C(O)[C@@H](Cc1ccccc1Cl)N[*:1]]}$$$$V2.0)
Key: 3
